Ref: ChEMBL document CHEMBL5058577

Test system: Fibroblast
Assay: Multiplex assay against human fibroblast
Format: toxicity, cell-based
Conditions: 12 h, 10 µM, compound concentration 10 uM, replicate 2
Measure name: Population Hoechst High Intensity Objects (%)
One number for each entry, in %.

Cc1cc(-c2ccc3c(c2)CC[C@H]3N2CC3(CCN(C(=O)Cc4cn5cc(C)sc5n4)CC3)C2)ncn1 : 1

The following compounds each have a reported value; give each one's Population Hoechst High Intensity Objects (%).
1. COC(c1ccccc1)(c1ccccc1)[C@H](Oc1nc(C)cc(C)n1)C(=O)O
2. Cc1cc(=O)n(C)c2cc(N3C(=O)CC[C@H](NS(=O)(=O)CC(C)C)[C@H]3c3ccc(Cl)cc3)ccc12
3. Nc1nc(CC(=O)Nc2ccc(CCNC[C@H](O)c3ccccc3)cc2)cs1
4. C[C@H](NC(=O)CNC(=O)c1cccc(Cl)c1)c1ccccc1

Response given:
[4, 11, 5, 1]

###

Tested on: HEK-293T
Assay: Multiplex assay against HEK293T
Type: toxicity, cell-based
Settings: human, 24 h, 10 µM, compound concentration 10 uM, replicate 2
Can you tell me Total Cell Count for the items I'm about to list?
Answers are plain numbers.

COC(c1ccccc1)(c1ccccc1)[C@H](Oc1nc(C)cc(C)n1)C(=O)O : 318

For each of the items listed, what is its Total Cell Count?
1. Cc1cc(=O)n(C)c2cc(N3C(=O)CC[C@H](NS(=O)(=O)CC(C)C)[C@H]3c3ccc(Cl)cc3)ccc12
2. CC(C)C[C@H](CO)Nc1nc(S[C@@H](C)c2ccccc2)nc2nc(N)sc12
3. Cc1cc(-c2ccc3c(c2)CC[C@H]3N2CC3(CCN(C(=O)Cc4cn5cc(C)sc5n4)CC3)C2)ncn1
4. CC(F)(F)CN1CCOc2c(nn(-c3ccccc3Cl)c2-c2ccc(Cl)cc2)C1=O

Response given:
[328, 393, 425, 477]

For each listed entry, give its Total Cell Count.
1. O=C(Nc1cc(-c2ccccc2)nn1-c1ccccc1F)c1ccc([N+](=O)[O-])cc1
2. Cc1cc(NC(=O)NCCN2CCC(O)(Cc3ccccc3)CC2)c2ccccc2n1
3. N[C@](CC1c2ccccc2Oc2ccccc21)(C(=O)O)[C@H]1C[C@@H]1C(=O)O
4. CCC(=O)OCC(=O)[C@@]1(OC(=O)CC)[C@@H](C)C[C@H]2[C@@H]3CCC4=CC(=O)C=C[C@]4(C)[C@@]3(Cl)[C@@H](O)C[C@@]21C [BECLOMETHASONE DIPROPIONATE]
5. COc1ccc2[nH]c(I)c(CCNC(C)=O)c2c1
6. COc1cc2nc(N3CCN(C(=O)COc4c(OC)cccc4C(C)C)CC3)nc(N)c2cc1OC.Cl.Cl
7. O=c1nc2[nH]c3ccccc3nc-2c(=O)[nH]1

Response given:
1: 482; 2: 396; 3: 471; 4: 243; 5: 360; 6: 286; 7: 371

###

System: HEK-293T
Assay: Multiplex assay against HEK293T
Format: toxicity, cell-based
Details: human, 48 h, 1 µM, compound concentration 1 uM, replicate 2
Measure name: Population Normal (%)
Give bare numbers, in %.

Here are 5 compounds together with their reported answers.
CCc1nn2c(C)cc(C)nc2c1Cc1ccc(-c2nnc(C3CCNCC3)o2)cc1 : 94
COc1cc(C(=O)N2CC[C@@H](O)[C@@H](N)C2)cc2nc(-c3cc4ccccc4n3CC3CC3)n(C)c12.Cl : 92
Cc1cc(O)c(-c2ccc([C@@H](C)CN(C)C)cc2)c2c1[nH]c(=O)c1sccc12 : 74
O=c1ccc2ccc(OCCCCN3CCN(c4cccc5sccc45)CC3)cc2[nH]1 : 96
CCCCCCNC(=O)Nc1ccc(S(=O)(=O)Nc2ccc(CCNC[C@H](O)COc3ccc(O)cc3)cc2)cc1 : 94

Please supply Population Normal (%) for each of the following items, keeping them in order.
1. O=C(NCCNCC(O)COc1ccc(O)cc1)N1CCOCC1.O=C(NCCNCC(O)COc1ccc(O)cc1)N1CCOCC1.O=C(O)/C=C/C(=O)O (configuration not stated) [XAMOTEROL FUMARATE]
2. Cc1cc(=O)n(C)c2cc(N3C(=O)CC[C@H](NS(=O)(=O)CC(C)C)[C@H]3c3ccc(Cl)cc3)ccc12
3. S=C(NCCCc1c[nH]cn1)NCCCN(Cc1ccc(Cl)c(Cl)c1)c1ccc(Br)cn1
4. CCn1c(-c2nc3cc(C(=O)N4CCCC(N)C4)ccc3n2C)cc2ccccc21.Cl (configuration not stated)
5. COCCCN1CCC(NC(=O)c2cc(Cl)c(N)c3c2OCC3)CC1 [PRUCALOPRIDE]

Response given:
[95, 92, 72, 95, 98]

Report Population Normal (%) for each item below.
1. CN(C)C/C=C/C(=O)Nc1ccc(C(=O)N2CCCC(Nc3ncc(Cl)c(-c4c[nH]c5ccccc45)n3)C2)cc1 (configuration not stated)
2. CC(C)C[C@H](CO)Nc1nc(S[C@@H](C)c2ccccc2)nc2nc(N)sc12

Response given:
1: 73; 2: 96

###

Give Population Apoptotic (%) for every item shown.
System: HEK-293T
Test: Multiplex assay against HEK293T
Assay type: toxicity, cell-based
Details: human, 48 h, 1 µM, compound concentration 1 uM, replicate 1
Answers are plain numbers, in %.

CC(C)(C)c1ccc(CSc2cnn(C(C)(C)C)c(=O)c2Cl)cc1 [PYRIDABEN] : 19
O=C(O)CCC/C=C\CC1C(O)CC(O)C1/C=C/C(O)COc1cccc(Cl)c1 (centres undefined) [CLOPROSTENOL] : 20
CCc1nn2c(C)cc(C)nc2c1Cc1ccc(-c2nnc(C3CCNCC3)o2)cc1 : 28

Here is another compound to look at.
Challenge: Query Population Apoptotic (%) on HEK-293T for C[C@@H]1CC(=O)Nc2cccc(-c3ccc4c(c3)c(-c3cnn(C)c3)nn4C)c2N1
Response given: 33

###

Test system: U2OS
Assay: Multiplex assay against U2OS
Assay type: toxicity, cell-based
Settings: human, 48 h, 10 µM, compound concentration 10 uM, replicate 1
Measure name: Population Healthy Nuclei (%)
Answers are plain numbers, in %.

N[C@](CC1c2ccccc2Oc2ccccc21)(C(=O)O)[C@H]1C[C@@H]1C(=O)O : 77
COc1cc(OC2CCN(C(C)=O)CC2)ccc1C(=O)N1CCC(N2C(=O)OCc3ccccc32)CC1 : 66
Cc1nn(C)c2nc(NNC(=O)Nc3cc(Cl)nc(Cl)c3)cc(C(C)C)c12 : 43
CCCCCCNC(=O)Nc1ccc(S(=O)(=O)Nc2ccc(CCNC[C@H](O)COc3ccc(O)cc3)cc2)cc1 : 70
CCc1nn2c(C)cc(C)nc2c1Cc1ccc(-c2nnc(C3CCNCC3)o2)cc1 : 55

Go through the items and report each one's Population Healthy Nuclei (%).
1. O=c1ccc2ccc(OCCCCN3CCN(c4cccc5sccc45)CC3)cc2[nH]1
2. C=CCN1C[C@H](C(=O)N(CCCN(C)C)C(=O)NCC)C[C@@H]2c3cccc4[nH]cc(c34)C[C@H]21
3. COc1cc(Nc2ncc3c(n2)-c2ccc(Cl)cc2C(c2c(F)cccc2OC)=NC3)ccc1C(=O)O
4. O=C(O)CCC/C=C\CC1C(O)CC(O)C1/C=C/C(O)COc1cccc(Cl)c1 (configuration not stated)

Response given:
1: 12; 2: 57; 3: 44; 4: 67

// input: 3 molecules below; output: Population Healthy Nuclei (%) for each
1. C[C@H](NC(=O)CNC(=O)c1cccc(Cl)c1)c1ccccc1
2. COCCCN1CCC(NC(=O)c2cc(Cl)c(N)c3c2OCC3)CC1 [PRUCALOPRIDE]
3. COc1ccc2c(c1OCc1ccccc1)C[C@@H](C(=O)O)N(C(=O)C(c1ccccc1)c1ccccc1)C2

Response given:
[73, 69, 71]

###

Exercise: for every item that follows, state its recorded Population Pyknosed Nuclei (%).
Test system: Fibroblast
Experiment: Multiplex assay against human fibroblast
Format: toxicity, cell-based
Conditions: 12 h, 10 µM, compound concentration 10 uM, replicate 2
Numbers only, in %.

These solved cases illustrate the format of a correct answer.
Cc1c(Cc2ccc3ccccc3n2)c2cc(F)ccc2n1CC(=O)O : 19
C=CCN1C[C@H](C(=O)N(CCCN(C)C)C(=O)NCC)C[C@@H]2c3cccc4[nH]cc(c34)C[C@H]21 : 16
Cc1nn(C)c2nc(NNC(=O)Nc3cc(Cl)nc(Cl)c3)cc(C(C)C)c12 : 10
Cc1sc2c(c1C)C(c1ccc(Cl)cc1)=N[C@H](CC(=O)OC(C)(C)C)c1nnc(C)n1-2 : 29

Hey, quick one: what's Population Pyknosed Nuclei (%) for each of these?
1. Cl.Cl.OCCOCCN1CCN(C(c2ccccc2)c2ccc(Cl)cc2)CC1 (stereo not drawn) [HYDROXYZINE HYDROCHLORIDE]
2. O=c1ccc2ccc(OCCCCN3CCN(c4cccc5sccc45)CC3)cc2[nH]1
3. CCC(=O)OCC(=O)[C@@]1(OC(=O)CC)[C@@H](C)C[C@H]2[C@@H]3CCC4=CC(=O)C=C[C@]4(C)[C@@]3(Cl)[C@@H](O)C[C@@]21C [BECLOMETHASONE DIPROPIONATE]
4. Nc1nc(-c2ccco2)c2cnn(Cc3ccccc3F)c2n1

Response given:
[32, 20, 24, 16]
